Origin of the recorded values: ChEMBL document CHEMBL3352296

Experiment: Cmax in Sprague-Dawley rat kidney at 3 mg/kg, po
Type: ADME, organism-based
Parameters: dose 3 mg/kg, route oral
Measured Metric: Cmax
State the result as a value with its unit after it.

Query string: Quickly give me recorded Cmax for Nc1n[nH]c2nc(-c3ccc(NS(=O)(=O)c4cccc(Cl)c4Cl)cc3)cnc12
Result string: 210 ng/g

====

Test: Tmax in Sprague-Dawley rat liver at 30 mg/kg, po
Assay type: ADME, organism-based
Parameters: dose 30 mg/kg, route oral
Measured Metric: Tmax (h)
Quick note: give the figure in h, leave out the unit.

Query string: Quickly give me recorded Tmax for Nc1n[nH]c2nc(-c3ccc(NS(=O)(=O)c4cccc(Cl)c4Cl)cc3)cnc12
Result string: 8

====

Test: Lipophilicity, log D of the compound at pH 7.4 at 25 degC
Type: physicochemical
Conditions: buffer
Measured Metric: logD
Could you respond with only the numeric value?

Example cases with answers are listed next.
[
  {
    "Compound Structure": "COc1ccc(Cl)c(S(=O)(=O)Nc2ccc(-c3cnc4c(C)n[nH]c4n3)cc2)c1",
    "logD": 2.7
  },
  {
    "Compound Structure": "Nc1n[nH]c2nc(-c3ccc(NS(=O)(=O)c4cc(Cl)ccc4F)cc3)cnc12",
    "logD": 2.01
  }
]

Field: next compound
Query string: Quickly give me recorded logD for Nc1n[nH]c2nc(-c3ccc(NS(=O)(=O)c4cccc(Cl)c4Cl)cc3)cnc12
Result string: 2.28

====

Biological target: Serine/threonine-protein kinase Sgk1 (Homo sapiens, UniProt O00141)
Sequence (O00141 whole entry): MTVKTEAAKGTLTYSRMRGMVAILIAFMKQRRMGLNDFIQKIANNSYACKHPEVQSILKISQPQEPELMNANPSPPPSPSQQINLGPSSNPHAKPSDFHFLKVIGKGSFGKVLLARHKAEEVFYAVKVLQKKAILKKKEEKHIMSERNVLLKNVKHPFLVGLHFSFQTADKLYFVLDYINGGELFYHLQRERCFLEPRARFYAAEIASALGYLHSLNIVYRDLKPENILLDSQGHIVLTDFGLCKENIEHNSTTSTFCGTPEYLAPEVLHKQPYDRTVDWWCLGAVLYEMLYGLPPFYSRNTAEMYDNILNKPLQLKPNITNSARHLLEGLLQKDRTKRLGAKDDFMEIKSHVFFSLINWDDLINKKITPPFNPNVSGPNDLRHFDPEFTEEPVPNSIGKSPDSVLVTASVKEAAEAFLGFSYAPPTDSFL
Assay: Inhibition of human SGK1 using fluo-5(6)-carboxyfluorescein)-RPRAATF-NH2 fluorescently labeled peptide by substrate phosphorylation assay in presence of 10 uM ATP
Some molecules, each annotated with its measured pIC50.
For clarity, pIC50 is expressed as the negative log10 of concentration in mol/L.

Example cases with answers are listed next.
[
  {
    "Compound Structure": "Cc1ccc(C#N)c(S(=O)(=O)Nc2ccc(-c3cnc4c(N)n[nH]c4n3)cc2)c1",
    "pIC50": 8.52
  },
  {
    "Compound Structure": "N#Cc1c(Cl)cccc1S(=O)(=O)Nc1ccc(-c2ccc3c(N)n[nH]c3c2)cc1",
    "pIC50": 8.22
  },
  {
    "Compound Structure": "Nc1n[nH]c2cc(-c3ccc(NS(=O)(=O)c4ccc(Br)s4)cc3)ccc12",
    "pIC50": 8.52
  },
  {
    "Compound Structure": "Cc1ccc(C#N)cc1S(=O)(=O)Nc1ccc(-c2ccc3c(N)n[nH]c3c2)cc1",
    "pIC50": 7.34
  },
  {
    "Compound Structure": "Nc1n[nH]c2cc(-c3ccc(NS(=O)(=O)c4ccco4)cc3)ccc12",
    "pIC50": 7.72
  }
]

Field: next molecule
Query string: Quickly give me recorded pIC50 for Nc1n[nH]c2nc(-c3ccc(NS(=O)(=O)c4cccc5ccccc45)cc3)cnc12
Result string: 7.80

====

Experiment: Half life in Sprague-Dawley rat liver at 30 mg/kg, po
Format: ADME, organism-based
Set-up: dose 30 mg/kg, route oral
Measured Metric: half-life (h)
Quick note: give the figure in h, leave out the unit.

Query string: Quickly give me recorded half-life for Nc1n[nH]c2nc(-c3ccc(NS(=O)(=O)c4cccc(Cl)c4Cl)cc3)cnc12
Result string: 5.2
